test.system: Streptokinase A (Streptococcus pyogenes serotype M1)
Sequence (P10520 whole entry): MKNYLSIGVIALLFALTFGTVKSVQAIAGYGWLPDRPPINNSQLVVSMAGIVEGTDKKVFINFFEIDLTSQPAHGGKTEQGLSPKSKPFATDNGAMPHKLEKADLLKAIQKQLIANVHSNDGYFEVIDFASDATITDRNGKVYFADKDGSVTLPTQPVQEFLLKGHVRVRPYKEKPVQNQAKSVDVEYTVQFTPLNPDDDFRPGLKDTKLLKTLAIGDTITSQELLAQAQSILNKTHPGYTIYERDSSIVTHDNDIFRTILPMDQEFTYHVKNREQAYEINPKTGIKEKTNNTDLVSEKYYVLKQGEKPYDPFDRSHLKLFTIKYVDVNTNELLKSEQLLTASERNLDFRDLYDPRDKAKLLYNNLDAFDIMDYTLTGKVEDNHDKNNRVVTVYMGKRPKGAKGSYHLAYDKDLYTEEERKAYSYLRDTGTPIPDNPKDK
protocol.text: S. pyogenes streptokinase expression inhibitors, potency, dose response, plasminogen activation absorbance, OD405 (AID 1914);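 also: secreted streptokinase activity via plasminogen activation per viability signal from cell pellet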
Assay type: functional, Streptococcus pyogenes M1 GAS
Calls of active or inactive are those of the source.
Below, each entry is listed alongside its reported EC50.

Solved cases below.
| compound | EC50 |
| --- | --- |
| COc1ccccc1CN1CC(C(=O)NCc2ncccc2C)CCC1=O (centres undefined) | > 150 µM (not active) |
| O=C(COc1ccc(-c2ccccc2)cc1)N/N=C/c1cc(O)ccc1Br | 5.71 µM (active) |

Q) Give the measured EC50 for Cc1cccc2[nH]c3c(N4CC=C(c5ccc(F)cc5)CC4)ncnc3c12
A) > 150 µM (not active)

Q) # return recorded EC50 for entry N#C/C(=C/c1ccc(N2CCCCCC2)o1)c1ccc(F)cc1
A) 16 µM (active)

Q) State its EC50: C/C(=N\Nc1ccc(C(=O)O)cc1)c1ccc2c(c1)Nc1ccccc1S2
A) > 150 µM (not active)

Q) Dear colleague, please send me the reported EC50 for Nc1nc(Nc2ccc(Cl)cc2)nc(NCc2ccco2)c1[N+](=O)[O-] when you can.
A) > 150 µM (not active)

Q) Output EC50 of COc1ccc(CCN2CC(C(=O)NCCc3ccccn3)CCC2=O)cc1 (centres undefined)
A) > 150 µM (not active)

Q) Look up EC50 of O=C(NCc1ccccc1)C(=O)Nc1nc(-c2ccccc2)cs1 and report it.
A) > 150 µM (not active)

Q) Consider the compound CCn1ccnc1CN1CCc2c([nH]c3ccccc23)C1C1CCCCC1 (centres undefined) . State its measured EC50.
A) 42.1 µM (active)

###

test.system: Polyadenylate-binding protein 1 (Homo sapiens)
Sequence (P11940 whole entry): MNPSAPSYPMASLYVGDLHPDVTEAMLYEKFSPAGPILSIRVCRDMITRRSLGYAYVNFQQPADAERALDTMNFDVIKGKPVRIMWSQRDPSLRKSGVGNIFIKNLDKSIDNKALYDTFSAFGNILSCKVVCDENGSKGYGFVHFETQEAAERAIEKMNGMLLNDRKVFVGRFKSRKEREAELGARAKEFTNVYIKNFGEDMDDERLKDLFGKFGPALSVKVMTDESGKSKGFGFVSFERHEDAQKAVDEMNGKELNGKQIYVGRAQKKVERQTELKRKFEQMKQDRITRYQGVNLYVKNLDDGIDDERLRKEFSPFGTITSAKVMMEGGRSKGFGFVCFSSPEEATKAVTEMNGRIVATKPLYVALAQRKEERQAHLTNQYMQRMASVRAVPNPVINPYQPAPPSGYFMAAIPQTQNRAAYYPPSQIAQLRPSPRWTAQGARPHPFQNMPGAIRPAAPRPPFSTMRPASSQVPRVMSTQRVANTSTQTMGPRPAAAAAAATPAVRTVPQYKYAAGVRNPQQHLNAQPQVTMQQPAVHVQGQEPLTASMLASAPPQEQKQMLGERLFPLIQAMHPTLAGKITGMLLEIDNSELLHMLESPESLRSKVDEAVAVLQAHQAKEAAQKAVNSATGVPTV
protocol.text: PABP1 MLLE–PAM2 binding inhibitor potency, dose response, biochemical, fluorescence polarization, FITC-PAM2 peptide (AID 602259)
Type: functional
experimental.parameters: read-out: IC50_Mean
Active and inactive are the calls of the source.
List of IC50 values.

Solved cases below.
| structure.string | IC50 |
| --- | --- |
| CCOC(=O)c1c(NC(=O)CSc2nnnn2-c2ccc(OC)cc2)sc(C)c1C | > 66 µM (inactive) |
| CCN(CC)S(=O)(=O)c1ccc(C(=O)NCc2ccc3c(c2)cc(C)n3C)cc1 | > 66 µM (inactive) |
| Cc1cccc(C)c1N=C(S)Nc1ccc(Cl)c(Cl)c1 | > 66 µM (inactive) |

Now let's try a different one.
Q) Identify measured IC50 corresponding to COc1c(O)cccc1[C@H](O)C1CCN(CCc2ccc(F)cc2)CC1
A) 36.9 µM (inactive)

###

Test system: Streptococcus sp. 'group A'
protocol.text: growth inhibition of control SK(-) GAS strain, dose response, counter-screen for streptokinase expression inhibitor project, luminescence, kanamycin, BacTiterGlo, confirmation (AID 1900)
Format: functional, organism-based
Active and inactive are the calls of the source.
assay.metric: EC50

Sample records with EC50:
| compound | EC50 |
| --- | --- |
| Cc1cccc(/C=C2/SC(N/N=C3\CC4CCC3(C)C4(C)C)=NC2=O)c1 (stereo not given) | 1.83 µM (active) |
| C/C(=N\Nc1ccc(C(=O)O)cc1)c1ccc2c(c1)Nc1ccccc1S2 | 3.9 µM (active) |
| O=C(COc1ccc(-c2ccccc2)cc1)N/N=C/c1cc(O)ccc1Br | 2.51 µM (active) |

Q) Read the entry Nc1nc(Nc2ccc(Cl)cc2)nc(NCc2ccco2)c1[N+](=O)[O-] and write its reported EC50.
A) 7.12 µM (active)

Q) Tell us which EC50 value is on record for CC(C)Cn1c(=O)c(C(=O)N/N=C/c2cccc(F)c2)c(O)c2ccccc21
A) 1.28 µM (active)

###

test.system: Paired box protein Pax-8 (Homo sapiens)
Sequence (Q06710 whole entry): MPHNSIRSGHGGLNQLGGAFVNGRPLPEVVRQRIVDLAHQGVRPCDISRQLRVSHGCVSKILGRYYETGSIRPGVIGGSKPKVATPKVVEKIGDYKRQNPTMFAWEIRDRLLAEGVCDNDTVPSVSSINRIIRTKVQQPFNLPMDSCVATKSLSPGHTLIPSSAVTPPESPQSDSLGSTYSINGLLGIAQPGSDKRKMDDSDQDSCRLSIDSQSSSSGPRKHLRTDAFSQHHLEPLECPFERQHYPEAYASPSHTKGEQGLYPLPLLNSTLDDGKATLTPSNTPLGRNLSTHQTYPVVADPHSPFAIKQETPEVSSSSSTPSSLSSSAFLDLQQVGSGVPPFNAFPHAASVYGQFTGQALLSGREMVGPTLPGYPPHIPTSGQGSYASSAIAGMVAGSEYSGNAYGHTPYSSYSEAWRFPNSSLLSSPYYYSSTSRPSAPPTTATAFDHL
protocol.text: inhibitors of PAX8-driven TPO luciferase reporter, dose response, RMG-I cells, cherry-pick (AID 687027);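 also: luciferase reporter driven by Pax8 target thyroperoxidase promoter measured by SteadyGlo luminescence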
Assay type: functional, cell-based
Calls of active or inactive are those of the source.
assay.metric: AC50

Check out these entries, answers already filled in.
| structure.string | test.system | AC50 |
| --- | --- | --- |
| O=C(C[C@@H]1CC[C@@H]2[C@H](COC[C@H](O)CN2S(=O)(=O)c2ccccc2Cl)O1)N1CCC(Cc2ccccc2)CC1 | Paired box protein Pax-8 (Homo sapiens) | 13.3 µM (active) |
| C[C@H](CO)N1C[C@H](C)[C@H](CN(C)S(=O)(=O)c2ccc(Cl)cc2)OCCCC[C@H](C)Oc2ccc(NS(=O)(=O)c3ccc(F)cc3)cc2C1=O | Paired box protein Pax-8 (Homo sapiens) | 9.43 µM (active) |
| Cc1ccc(/C=N/NC(=O)COc2ccccc2-c2ccccc2)cc1 | Paired box protein Pax-8 (Homo sapiens) | 0.77 µM (active) |
| CCOc1ccc2c(c1)C(C)=CC(C)(C)N2S(=O)(=O)c1ccc(NC(C)=O)cc1 | Paired box protein Pax-8 (Homo sapiens) | 1.61 µM (active) |
| CC(C)CC#Cc1ccc2c(c1)O[C@H](CN(C)S(=O)(=O)c1ccc(F)cc1)[C@H](C)CN([C@@H](C)CO)S2(=O)=O | Paired box protein Pax-8 (Homo sapiens) | 9.6 µM (active) |
| CCS(=O)(=O)c1ncc(Cl)c(C(=O)Nc2ccc(S(=O)(=O)N(C)c3ccccc3)cc2)n1 | Paired box protein Pax-8 (Homo sapiens) | 5.12 µM (active) |

For the next question, use this molecule.
Q) Find the measured AC50 of CN1CCN(c2ccc(S(=O)(=O)N3CCCCC3)cc2NC(=O)/C=C/c2ccc(Cl)c([N+](=O)[O-])c2)CC1 and report it.
A) 12.6 µM (active)

###

test.system: FAD-linked sulfhydryl oxidase ALR (Homo sapiens, UniProt P55789)
Sequence (P55789 whole entry): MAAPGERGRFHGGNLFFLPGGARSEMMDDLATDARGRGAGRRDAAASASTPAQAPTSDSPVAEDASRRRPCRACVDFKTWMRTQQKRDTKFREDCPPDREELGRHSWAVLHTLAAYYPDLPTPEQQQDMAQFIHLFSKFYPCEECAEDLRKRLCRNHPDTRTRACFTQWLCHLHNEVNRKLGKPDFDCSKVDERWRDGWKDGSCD
protocol.text: inhibitors of human ALR sulfhydryl oxidase, dose response, biochemical, H2O2 detection, luminescence, cherry-pick (AID 493248)
Active and inactive are the calls of the source.
assay.metric: AC50

Q) Identify AC50 associated with the compound Sc1nnc(-c2ccc(Cl)cc2)n1-c1ccc(Cl)cc1
A) 4740 nM (active)

Q) Fill in AC50 for record O=C(Nc1cccc(-c2cn3ccccc3n2)c1)c1ccccc1
A) 2890 nM (active)

Q) Supply reported AC50 belonging to this compound: CCc1cc(-c2nnc(S)n2-c2cccc(C)c2)cs1
A) 3650 nM (active)

Q) Name the recorded AC50 of the item COc1cc(/C(C)=N/NC(=O)Cc2c(C)n[nH]c2O)ccc1O in your answer.
A) 4030 nM (active)

Q) Give reported AC50 value for CC1(C)Nc2ccccc2N(Cc2ccc([N+](=O)[O-])cc2)C1=O
A) 3920 nM (active)

Q) Complete the entry with AC50 for Nc1cc(C(=O)O)ccc1Nc1ccc(F)c(F)c1
A) 345 nM (active)

###

Listing of recorded EC50 by entry.
System: Streptococcus
protocol.text: Group A Streptococcus viability loss, dose response, counter-screen for streptokinase expression inhibitor project, luminescence, BacTiterGlo (AID 1915);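 also: potency for reduction of bacterial viability or growth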
Format: functional, organism-based
Active and inactive are the calls of the source.

Below, each entry is followed by its recorded EC50 result.
| structure.string | EC50 |
| --- | --- |
| Cc1cccc2[nH]c3c(N4CC=C(c5ccc(F)cc5)CC4)ncnc3c12 | 7.98 µM (active) |
| COc1cnc(-c2ccccn2)nc1N(C)c1ccccc1 | 11 µM (active) |

# input for lookup
Q) Find the measured EC50 of Cc1cccc(OCCCCc2c(C)n[nH]c2C)c1C and report it.
A) 17 µM (active)

###

test.system: Cytochrome P450 2C9 (Homo sapiens, UniProt P11712)
Sequence (P11712 whole entry): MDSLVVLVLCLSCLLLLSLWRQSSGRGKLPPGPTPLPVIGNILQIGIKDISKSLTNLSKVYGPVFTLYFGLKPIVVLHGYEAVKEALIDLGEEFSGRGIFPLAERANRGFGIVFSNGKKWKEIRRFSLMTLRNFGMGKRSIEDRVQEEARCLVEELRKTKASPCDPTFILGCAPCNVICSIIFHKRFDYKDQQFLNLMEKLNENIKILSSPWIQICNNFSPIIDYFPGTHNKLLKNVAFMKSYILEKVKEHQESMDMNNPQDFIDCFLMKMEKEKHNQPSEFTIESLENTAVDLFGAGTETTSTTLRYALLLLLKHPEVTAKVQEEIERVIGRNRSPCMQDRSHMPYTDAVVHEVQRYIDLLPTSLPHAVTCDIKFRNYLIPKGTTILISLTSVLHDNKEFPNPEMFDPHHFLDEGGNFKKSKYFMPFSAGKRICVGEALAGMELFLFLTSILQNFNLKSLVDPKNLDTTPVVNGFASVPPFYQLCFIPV
compounds and their reported AC50

Q) Write AC50 of COC(=O)[C@@]1(Cc2ccc(OC)cc2)[C@H]2c3cc(C(=O)N4CCCC4)n(Cc4cc(C)n(C)n4)c3C[C@H]2CN1C(=O)c1ccccc1 ; system used: Cytochrome P450 2C9 (Homo sapiens, UniProt P11712)
A) 12.6 µM (inconclusive)

Q) Find the measured AC50 of Oc1cc(O)cc(/C=C\c2ccc(O)c(O)c2)c1 with Cytochrome P450 2C9 (Homo sapiens, UniProt P11712) as test system.
A) 31.6 µM (inconclusive)

Q) Specify the recorded AC50 for C/C(NCCN1CCOCC1)=C1/C(=O)NC(=O)N(Cc2ccccc2)C1=O , system: Cytochrome P450 2C9 (Homo sapiens, UniProt P11712).
A) 25.1 µM (inconclusive)
